METHOD_DESCRIPTION: gradient 5% acetonitrile 3 min, to 50% in 2 min, to 85% in 15 min, held 3 min, 100 µL/min
TEST_PARAMETERS: column: Zorbax Extend-C18 2.1 x 50 mm; eluents: water / acetonitrile, 0.1% formic acid
ENDPOINT_NAME: RP-LC retention time (s)

Examples from the recorded data:
COc1cc(NC(=O)C(C)Oc2ccc(=O)n(-c3ccc(F)cc3)n2)cc(OC)c1OC (centres undefined)	719
CCCn1c(=O)sc2cc(S(=O)(=O)N3CCC(C(=O)Nc4ccc(OC)cc4)CC3)ccc21	918
CC(C)CNC(=O)NC(c1ccccc1)c1nnc(-c2ccccc2Cl)o1 (centres undefined)	898
Cc1ccc(N2CC(c3nc(-c4cccs4)no3)CC2=O)cc1 (centres undefined)	877
Cc1nc2cccnc2n1CCN1CCN(C(=O)Nc2ccc(F)cc2)CC1	584
Cc1ccc(Sc2nccnc2N2CCCC(C(=O)N3CCN(c4cccc(C)c4)CC3)C2)cc1 (centres undefined)	1310
COCc1nnc(C(=O)Nc2cccc(C(=O)NCCc3c[nH]c4ccc(OC)cc34)c2)s1	799

[1] N#Cc1ccsc1NC(=O)NC(c1ccccc1)c1ccccc1
[2] CC(C)NC(=O)NC1CCN(c2nc3ccccc3n(C)c2=O)CC1
Prompt line: Sort 1 and 2 by RP-LC retention time descending and give the first. Let me know the label of the one you choose.
Response line: 1
(1: 947 s, 2: 562 s)
